Origin of the recorded values: patent US20070004660A1

# target-system: isolated kinase domain of the human FLT3 receptor (a.a. 571-993) (Homo sapiens, UniProt P36888)
# Construct: human FLT3 receptor (a.a. 571-993)
# measurement-description: FLT3 fluorescence polarization kinase assay
# condition-context: 150 uM ATP; uncertainty ±10%
pIC50: −log10 of the molar value.
Note to self: values exactly at 7 are satisfied. So pIC50 at or above 7 is satisfied, below is not satisfied.

1. COCCOc1ccc(NC(=O)N2CCC(c3ncnc4cc(OC)c(OC)cc34)CC2)cc1: not satisfied
2. COc1cc2ncnc(C3CCN(C(=O)Nc4ccc5ncsc5c4)CC3)c2cc1OC: not satisfied
3. O=C(CO)N1CCN(c2ccc3c(C4CCN(C(=O)Nc5ccc(N6CCCC6)cc5)CC4)ncnc3c2)CC1: satisfied
4. O=C(Nc1ccc(N2CCOCC2)cc1)N1CCC(c2ncnc3cc(OCCC4CCCCN4)ccc23)CC1 (centres unmarked): satisfied
5. CC(=O)N1CC(Oc2ccc3c(C4CCN(C(=O)Nc5ccc(N6CCCC6)cc5)CC4)ncnc3c2)C1: not satisfied
6. O=C1CCCN1CCOc1ccc2c(C3CCN(C(=O)Nc4ccc(N5CCCC5)cc4)CC3)ncnc2c1: satisfied
7. COc1cc2ncnc(C3CCN(C(=O)Nc4ccc(N5CCN(C)CC5)cc4)CC3)c2cc1OC: not satisfied

----------
# target-system: isolated kinase domain of the human FLT3 receptor (a.a. 571-993) (Homo sapiens)
# Construct: human FLT3 receptor (a.a. 571-993)
# measurement-description: FLT3 fluorescence polarization kinase assay
# condition-context: 150 uM ATP; uncertainty ±10%
pIC50: −log10 of the molar value.
measurement-kind: pIC50

1) CC(C)Oc1ccc(NC(=O)N2CCC(c3ncnc4ccc(C#CCN5CCOCC5)cc34)CC2)cc1: 7.34
2) COc1cc2ncnc(C3CCN(C(=O)Nc4ccc(N5CCCCCC5)cc4)CC3)c2cc1OC: 7.57
3) CN1CCN(c2ccc3c(C4CCN(C(=O)Nc5ccc(N6CCCC6)cc5)CC4)ncnc3c2)CC1=O: 6.61
4) COc1cc2ncnc(C3CCN(C(=O)NC4CCC(C(C)(C)C)CC4)CC3)c2cc1OC (stereo not shown): 6.77

----------
# target-system: isolated kinase domain of the human FLT3 receptor (a.a. 571-993) (Homo sapiens, UniProt P36888)
# Construct: human FLT3 receptor (a.a. 571-993)
# Sequence (P36888 571-993): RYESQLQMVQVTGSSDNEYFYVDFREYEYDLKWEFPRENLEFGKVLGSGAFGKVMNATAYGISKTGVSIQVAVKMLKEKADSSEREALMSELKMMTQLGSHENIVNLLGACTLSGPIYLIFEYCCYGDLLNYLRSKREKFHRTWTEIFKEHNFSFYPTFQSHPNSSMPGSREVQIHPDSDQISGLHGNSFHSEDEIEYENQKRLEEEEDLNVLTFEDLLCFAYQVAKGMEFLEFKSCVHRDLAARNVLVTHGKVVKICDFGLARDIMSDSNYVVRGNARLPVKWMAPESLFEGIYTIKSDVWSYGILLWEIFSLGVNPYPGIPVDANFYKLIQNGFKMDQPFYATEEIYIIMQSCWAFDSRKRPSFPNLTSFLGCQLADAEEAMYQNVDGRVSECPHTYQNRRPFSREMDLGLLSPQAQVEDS
# measurement-description: FLT3 fluorescence polarization kinase assay
# condition-context: 150 uM ATP; uncertainty ±10%
Entries and their IC50 values follow.
measurement-kind: IC50 (nM)

1. CCN1CCN(CCCOc2ccc3c(C4CCN(C(=O)Nc5ccc(N6CCOCC6)cc5)CC4)ncnc3c2)CC1: 16
2. CCN(CC)CC#Cc1ccc2ncnc(C3CCN(C(=O)Nc4ccc(OC(C)C)cc4)CC3)c2c1: 72
3. COc1cc2ncnc(C3CCN(C(=O)Nc4ccc(OC5CCC5)nc4)CC3)c2cc1OC: 16
4. CCN(CC)CCCOc1ccc2c(C3CCN(C(=O)Nc4ccc(N5CCOCC5)cc4)CC3)ncnc2c1: 2
